# testedSystem: IL-13 (Homo sapiens (Human), UniProt P35225 35-146, limits assumed)
# Sequence (P35225 35-146 limits assumed): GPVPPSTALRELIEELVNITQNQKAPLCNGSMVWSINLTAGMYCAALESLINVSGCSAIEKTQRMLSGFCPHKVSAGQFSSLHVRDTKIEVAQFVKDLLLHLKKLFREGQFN
# measurementDescription: Biacore
pKd: −log10 of the molar value.
# Lookup of reported pKd keyed by entry
measuredMetric: pKd

binder="M469 (antibody, V domains shown, anti-IL-13, human IgG1) VH: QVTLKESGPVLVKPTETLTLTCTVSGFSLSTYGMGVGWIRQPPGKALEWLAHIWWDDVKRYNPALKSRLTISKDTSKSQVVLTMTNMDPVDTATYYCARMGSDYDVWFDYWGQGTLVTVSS VL: EIVLTQSPATLSLSPGERATLSCRASKSISKYLAWYQQKPGQAPRLLIYSGSTLQSGIPARFSGSGSGTDFTLTISSLEPEDFAVYYCQQHDWEPYTFGQGTKLEIK" measuredmetric=pKd quantitativereadout=10.00
binder="M471 (antibody, V domains shown, anti-IL-13, human IgG1) VH: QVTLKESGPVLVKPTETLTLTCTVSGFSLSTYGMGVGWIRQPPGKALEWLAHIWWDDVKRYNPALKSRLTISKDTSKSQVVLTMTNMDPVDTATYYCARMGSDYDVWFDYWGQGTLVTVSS VL: EIVLTQSPATLSLSPGERATLSCRASKSISKYLAWYQQKPGQAPRLLIYSGSTLQSGIPARFSGSGSGTDFTLTISSLEPEDFAVYYCQQPIDAPYTFGQGTKLEIK" measuredmetric=pKd quantitativereadout=9.60
